Cited source for all entries: PubChem BioAssay (Tox21)

procedureSummary: qHTS assay to test for compound auto fluorescence at 535 nm (green) in HepG2 cells (AID 720675); also: % is scaled to controls: 0 for no effect and ±100 for the full control effect
cond: green autofluorescence 485/535 nm, 1 h; series mostly up to 91.3 µM
Activity calls are given as the source filed them. Calls follow the shape of the dose curve; as a rule, active = well fitted curve in the direction sought with a large enough effect in the repeat runs; inconclusive = weak or mixed curves; inactive = flat fitted curve, though single readings scatter.
endpointName: fluorescence, % of fluorescein control

Past entries and their recorded results:
COc1cc2c(cc1OC)-c1cc(=Nc3c(C)cc(C)cc3C)n(C)c(=O)n1CC2 ... inactive
O=[N+]([O-])c1cccc(S(=O)(=O)NCCNS(=O)(=O)c2cccc([N+](=O)[O-])c2)c1 ... inactive
CCCCCCCCCCCCCCCCBr ... 0.118% [at 18.6 µM] (inactive)
CCC1(C)CC(=O)NC1=O (stereo not given) ... inactive
CCCCCCCCCCCC[N+](C)(C)CC(=O)[O-] ... inactive

Can you give me fluorescence, % of fluorescein control for all of these, one by one?
1. CCCCCCCCCOC(C)=O
2. CC(=O)OCC(=O)[C@H]1CC[C@H]2[C@@H]3CCC4=CC(=O)CC[C@]4(C)[C@H]3CC[C@]12C
3. CCCOC(=O)c1ccc(C(=O)OCCC)nc1
4. CC(C)c1nnc2ccc(-c3ocnc3-c3cc(F)ccc3F)cn12
5. CC(=O)[C@H]1CC[C@H]2[C@@H]3C=CC4=CC(=O)CC[C@@]4(C)[C@@H]3CC[C@]12C
6. O=C(Nc1ccc([N+](=O)[O-])cc1)Nc1ccc([N+](=O)[O-])cc1
7. Cc1oncc1C(=O)Nc1ccc(C(F)(F)F)cc1
8. C[C@]12CCC(=O)C=C1C=C[C@@H]1[C@@H]2CC[C@@]2(C)[C@H]1CC[C@@]21CCC(=O)O1

inactive
inactive
inactive
inactive
-0.0643% [at 18.6 µM] (inactive)
inactive
inactive
inactive

---

procedureSummary: qHTS assay for small molecule disruptors of the mitochondrial membrane potential - cell viability (AID 720634);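 also: human HepG2 liver cancer cells; % is scaled to controls: 0 for no effect and ±100 for the full control effect; nearly all actives have a fitted effect of over 20% in size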
cond: HepG2 viability, ATP luminescence (CellTiter-Glo), 1 h; series mostly up to 83.2 µM
Results filed as inconclusive are left out. Activity calls are given as the source filed them. Calls come from the whole dose curve.
endpointName: activity change, negative = cytotoxicity

O=C(CCCN1CCN(c2ccc(F)cc2)CC1)NC1c2ccccc2CSc2ccccc21 (stereo not given) ... inactive
CC1CC(=O)NN=C1c1ccc(NCC(C)(C)NCC(O)COc2cc(Cl)ccc2C#N)cc1 (stereo not given) ... inactive
CC1=CC(O)CC(C)(C)C1 (stereo not given) ... inactive
CCCCN(CCCC)CCCOC(=O)c1ccc(N)cc1 ... inactive
Nc1ccc(S(=O)(=O)O)c(N)c1 ... inactive

Items follow; give activity change, negative = cytotoxicity for each.
1. CNC(=O)N(c1ccccc1)c1ccccc1
2. CCCCCCCCCCCCCCC[C@H](O)[C@@H](N)CO
3. CCCCCCOC(=O)CCCCCCCC(=O)OCCCCCC

1: inactive; 2: inactive; 3: inactive

---

procedureSummary: A CellTox Green Cytotoxicity Assay to monitor cytotoxicity in HepG2 cells - 40 hour (AID 1224879); also: nearly all actives have a fitted effect of over 40% in size
cond: CellTox Green fluorescence; series mostly up to 76.8 µM
Inconclusive results are not listed. The source made the active and inactive calls. Calls follow the shape of the dose curve; as a rule, active = well fitted activation curve with a large enough effect in the repeat runs; inconclusive = weak or mixed curves; inactive = flat fitted curve, though single readings scatter.
# valid calls are active, inactive; nothing else

Fc1c(F)c(F)c(Br)c(F)c1F ... inactive
C[Si]1(C)O[Si](C)(C)O[Si](C)(C)O1 ... inactive
CCCCC(=O)O[C@]1(C(=O)CO)[C@@H](C)C[C@H]2[C@@H]3CCC4=CC(=O)C=C[C@]4(C)[C@@]3(F)[C@@H](O)C[C@@]21C ... inactive
COC(=O)Nc1nc2ccc(C(=O)c3cccs3)cc2[nH]1 ... active
C=CC(=O)NCOCC(C)C ... inactive

Record request — test call for Nc1ccc(S(=O)(=O)O)cc1
inactive

Please state the recorded outcome for this compound: CC(C)(CCl)c1ccccc1
inactive

In this assay, the call recorded for CCCCCCCCCCOS(=O)(=O)O was what?
inactive

State the result this test recorded for Cc1ccnc2ccccc12 .
inactive

Per the assay record, what outcome was assigned to CC(C)(C)C(=O)O ?
inactive
